Target: ScSho1
Test: SPOT peptide array binding signal intensity (averaged, normalized) (arbitrary units (background-subtracted, floor 0; scale differs between SH3 domains)); higher = stronger binding of the SH3 domain to the peptide
Kindly supply the reported SPOT peptide array binding signal intensity values for the records listed here.
Form rule: numeric answer, no unit written next to it.

Reported SPOT peptide array binding signal intensity ( GKLKHIPRRPYEIER ) = 71.5

Reported SPOT peptide array binding signal intensity ( NLPKRKPPKLQGPFS ) = 408

Reported SPOT peptide array binding signal intensity ( KLSRGRYGLPLSSRP ) = 112

Reported SPOT peptide array binding signal intensity ( TKHKAPPPPPPTAET ) = 2.5

Reported SPOT peptide array binding signal intensity ( RPVPPPPPMRTTTEG ) = 616

Reported SPOT peptide array binding signal intensity ( VQPTAAPATPPRHIS ) = 4.75

The reported numbers originate from the supplement of paper PMC4466140.
